Hello, the source for this data is the supplement of paper PMC3414501, in case you need it.

# Tested on: S. cerevisiae NKY1551 his4x/his4B, sporulating;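 also: active if sensitivity score above 5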
# METHOD_SUMMARY: HIS4 meiotic recombination assay sensitivity score (z-score vs DMSO controls); higher = stronger inhibition of sporulation/recombination, active = hit call of the paper
Counter-ions that a name gives are not always drawn.
QUANTITY_NAME: HIS4 meiotic recombination assay sensitivity score
Write no unit; give the number alone.

1. Cc1c2oc3c(C)ccc(C(=O)N[C@@H]4C(=O)N[C@H](C(C)C)C(=O)N5CCC[C@H]5C(=O)N(C)CC(=O)N(C)[C@@H](C(C)C)C(=O)O[C@@H]4C)c3nc-2c(C(=O)N[C@@H]2C(=O)N[C@H](C(C)C)C(=O)N3CCC[C@H]3C(=O)N(C)CC(=O)N(C)[C@@H](C(C)C)C(=O)O[C@@H]2C)c(N)c1=O [Dactinomycin] (stock concentration (mM, diluted 1:100): 10)	0.61

Retrieve HIS4 meiotic recombination assay sensitivity score measured for COc1cc(OC)c(C(=O)CCCN2CCCC2)c(OC)c1 [Buflomedil hydrochloride] (stock concentration (mM, diluted 1:100): 8.9) and print it. -1.08

Retrieve HIS4 meiotic recombination assay sensitivity score measured for CCN(CC)CC1CCCCN1CC(=O)N1c2ccccc2C(=O)Nc2cccnc21 (centres undefined) [Otenzepad] (stock concentration (mM, diluted 1:100): 10) and print it. -0.63

Retrieve HIS4 meiotic recombination assay sensitivity score measured for CCOC(=O)OC(C)OC1=C(C(=O)Nc2ccccn2)N(C)S(=O)(=O)c2ccccc21 (centres undefined) [Ampiroxicam] (stock concentration (mM, diluted 1:100): 10) and print it. 1.18
